These data points were gathered from patent US11844794B2.

- experimental_protocol: pharmacokinetics after oral administration to male Beagle dogs
- Format: in vivo, Beagle dog
- measurement_parameters: male, Beagle (HsdRcc:DOBE), dog, plasma, po, 1.5 mg/kg, Plasma concentration of (+)-α-dihydrotetrabenazine, Male 2, oral 1.50 mg/kg (freebase equivalent), 1 h
endpoint: concentration at 1 h (ng/mL)

| compound | test_result |
| --- | --- |
| COc1cc2c(cc1OC)[C@H]1C[C@@H](O)[C@H](CC(C)C)CN1CC2.O=C(O)CCC(=O)O [(+)-α-dihydrotetrabenazine succinate] | 14.8 |

====

- experimental_protocol: pharmacokinetics after oral administration to male Beagle dogs
- Assay type: in vivo, Beagle dog
- measurement_parameters: male, Beagle (HsdRcc:DOBE), dog, plasma, po, 1.5 mg/kg, Plasma concentration of (+)-α-dihydrotetrabenazine, Male 3, oral 1.50 mg/kg (freebase equivalent), 2 h
endpoint: concentration at 2 h (ng/mL)

| compound | endpoint | unit_symbol | test_result |
| --- | --- | --- | --- |
| COc1cc2c(cc1OC)[C@H]1C[C@@H](O)[C@H](CC(C)C)CN1CC2.O=C(O)CCC(=O)O [(+)-α-dihydrotetrabenazine succinate] | concentration at 2 h | ng/mL | 21.7 |

====

- experimental_protocol: plasma concentrations after oral dosing to human volunteers
- Type: in vivo
- measurement_parameters: human, plasma; subject 1 (112 kg), 22.5 mg oral, 1 h

| compound | unit_symbol | concentration at 1 h |
| --- | --- | --- |
| COc1cc2c(cc1OC)[C@H]1C[C@@H](O)[C@H](CC(C)C)CN1CC2 [(+)-α-dihydrotetrabenazine] | ng/mL | 18 |

====

- experimental_protocol: pharmacokinetics after oral administration to male Beagle dogs
- Type: in vivo, Beagle dog
- measurement_parameters: male, Beagle (HsdRcc:DOBE), dog, plasma, po, 1.5 mg/kg, Plasma concentration of (+)-α-dihydrotetrabenazine, Male 2, oral 1.50 mg/kg (freebase equivalent), 2 h

| compound | concentration at 2 h [ng/mL] |
| --- | --- |
| COc1cc2c(cc1OC)[C@H]1C[C@@H](O)[C@H](CC(C)C)CN1CC2.O=C(O)CCC(=O)O [(+)-α-dihydrotetrabenazine succinate] | 3.65 |

====

- experimental_protocol: pharmacokinetics after oral administration to male Beagle dogs
- Format: in vivo, Beagle dog
- measurement_parameters: male, Beagle (HsdRcc:DOBE), dog, plasma, po, 1.5 mg/kg, Plasma concentration of (+)-α-dihydrotetrabenazine, Male 3, oral 1.50 mg/kg (freebase equivalent), 3 h

| molecule | concentration at 3 h / ng/mL |
| --- | --- |
| COc1cc2c(cc1OC)[C@H]1C[C@@H](O)[C@H](CC(C)C)CN1CC2.O=C(O)CCC(=O)O [(+)-α-dihydrotetrabenazine succinate] | 10.6 |

====

- experimental_protocol: pharmacokinetics after oral administration to male Beagle dogs
- Format: in vivo, Beagle dog
- measurement_parameters: dog, plasma, 1.5 mg/kg; male Beagle dogs, oral 1.50 mg/kg (freebase equivalent)

| compound | Cmax |
| --- | --- |
| COc1cc2c(cc1OC)[C@H]1C[C@@H](O)[C@H](CC(C)C)CN1CC2 [(+)-α-dihydrotetrabenazine] | 58.7 ng/mL |

====

- experimental_protocol: pharmacokinetics after oral administration to male Beagle dogs
- Format: in vivo, Beagle dog
- measurement_parameters: male, Beagle (HsdRcc:DOBE), dog, plasma, po, 1.5 mg/kg, Plasma concentration of (+)-α-dihydrotetrabenazine, Male 2, oral 1.50 mg/kg (freebase equivalent), 0.5 h

| molecule | unit_symbol | concentration at 0.5 h |
| --- | --- | --- |
| COc1cc2c(cc1OC)[C@H]1C[C@@H](O)[C@H](CC(C)C)CN1CC2.O=C(O)CCC(=O)O [(+)-α-dihydrotetrabenazine succinate] | ng/mL | 32.4 |

====

- experimental_protocol: pharmacokinetics after oral administration to male Beagle dogs
- Type: in vivo, Beagle dog
- measurement_parameters: male, Beagle (HsdRcc:DOBE), dog, plasma, po, 1.5 mg/kg, Plasma concentration of (+)-α-dihydrotetrabenazine, Male 1, oral 1.50 mg/kg (freebase equivalent), 0.25 h
endpoint: concentration at 0.25 h (ng/mL)

| molecule | unit_symbol | test_result |
| --- | --- | --- |
| COc1cc2c(cc1OC)[C@H]1C[C@@H](O)[C@H](CC(C)C)CN1CC2.O=C(O)CCC(=O)O [(+)-α-dihydrotetrabenazine succinate] | ng/mL | 66.7 |

====

- experimental_protocol: pharmacokinetics after oral administration to male Beagle dogs
- Format: in vivo, Beagle dog
- measurement_parameters: male, Beagle (HsdRcc:DOBE), dog, plasma, po, 1.5 mg/kg, Plasma concentration of (+)-α-dihydrotetrabenazine, Mean of 3 dogs, oral 1.50 mg/kg (freebase equivalent), 12 h; BLQ treated as zero

| compound | unit_symbol | concentration at 12 h |
| --- | --- | --- |
| COc1cc2c(cc1OC)[C@H]1C[C@@H](O)[C@H](CC(C)C)CN1CC2.O=C(O)CCC(=O)O [(+)-α-dihydrotetrabenazine succinate] | ng/mL | 0.07 |

====

- experimental_protocol: pharmacokinetics after oral administration to male Beagle dogs
- Format: in vivo, Beagle dog
- measurement_parameters: male, Beagle (HsdRcc:DOBE), dog, plasma, po, 1.5 mg/kg, Plasma concentration of (+)-α-dihydrotetrabenazine, Male 1, oral 1.50 mg/kg (freebase equivalent), 4 h
endpoint: concentration at 4 h (ng/mL)

| molecule | endpoint | test_result |
| --- | --- | --- |
| COc1cc2c(cc1OC)[C@H]1C[C@@H](O)[C@H](CC(C)C)CN1CC2.O=C(O)CCC(=O)O [(+)-α-dihydrotetrabenazine succinate] | concentration at 4 h | 1.03 |

====

- experimental_protocol: pharmacokinetics after oral administration to male Beagle dogs
- Assay type: in vivo, Beagle dog
- measurement_parameters: male, Beagle (HsdRcc:DOBE), dog, plasma, po, 1.5 mg/kg, Plasma concentration of (+)-α-dihydrotetrabenazine, Mean of 3 dogs, oral 1.50 mg/kg (freebase equivalent), 3 h
endpoint: concentration at 3 h

| compound | test_result |
| --- | --- |
| COc1cc2c(cc1OC)[C@H]1C[C@@H](O)[C@H](CC(C)C)CN1CC2.O=C(O)CCC(=O)O [(+)-α-dihydrotetrabenazine succinate] | 4.77 ng/mL |

====

- experimental_protocol: pharmacokinetics after oral administration to male Beagle dogs
- Type: in vivo, Beagle dog
- measurement_parameters: male, Beagle (HsdRcc:DOBE), dog, plasma, po, 1.5 mg/kg, Plasma concentration of (+)-α-dihydrotetrabenazine, Mean of 3 dogs, oral 1.50 mg/kg (freebase equivalent), 24 h; BLQ treated as zero
endpoint: concentration at 24 h (ng/mL)

| molecule | test_result |
| --- | --- |
| COc1cc2c(cc1OC)[C@H]1C[C@@H](O)[C@H](CC(C)C)CN1CC2.O=C(O)CCC(=O)O [(+)-α-dihydrotetrabenazine succinate] | 0 |

====

- experimental_protocol: pharmacokinetics after oral administration to male Beagle dogs
- Type: in vivo, Beagle dog
- measurement_parameters: male, Beagle (HsdRcc:DOBE), dog, plasma, po, 1.5 mg/kg, Plasma concentration of (+)-α-dihydrotetrabenazine, Male 3, oral 1.50 mg/kg (freebase equivalent), 6 h

| compound | unit_symbol | concentration at 6 h |
| --- | --- | --- |
| COc1cc2c(cc1OC)[C@H]1C[C@@H](O)[C@H](CC(C)C)CN1CC2.O=C(O)CCC(=O)O [(+)-α-dihydrotetrabenazine succinate] | ng/mL | 1.68 |

====

- experimental_protocol: pharmacokinetics after oral administration to male Beagle dogs
- Format: in vivo, Beagle dog
- measurement_parameters: male, Beagle (HsdRcc:DOBE), dog, plasma, po, 1.5 mg/kg, Plasma concentration of (+)-α-dihydrotetrabenazine, Mean of 3 dogs, oral 1.50 mg/kg (freebase equivalent), 4 h

| compound | concentration at 4 h [ng/mL] |
| --- | --- |
| COc1cc2c(cc1OC)[C@H]1C[C@@H](O)[C@H](CC(C)C)CN1CC2.O=C(O)CCC(=O)O [(+)-α-dihydrotetrabenazine succinate] | 2.59 |

====

- experimental_protocol: pharmacokinetics after oral administration to male Beagle dogs
- Format: in vivo, Beagle dog
- measurement_parameters: male, Beagle (HsdRcc:DOBE), dog, plasma, po, 1.5 mg/kg, Plasma concentration of (+)-α-dihydrotetrabenazine, Male 3, oral 1.50 mg/kg (freebase equivalent), 12 h
endpoint: concentration at 12 h (ng/mL)

| compound | test_result |
| --- | --- |
| COc1cc2c(cc1OC)[C@H]1C[C@@H](O)[C@H](CC(C)C)CN1CC2.O=C(O)CCC(=O)O [(+)-α-dihydrotetrabenazine succinate] | 0.212 |

====

- experimental_protocol: plasma concentrations after oral dosing to human volunteers
- Assay type: in vivo
- measurement_parameters: human, plasma; subject 3 (129 kg), 15 mg oral, 0.5 h

| compound | concentration at 0.5 h (ng/mL) |
| --- | --- |
| COc1cc2c(cc1OC)[C@H]1C[C@@H](O)[C@H](CC(C)C)CN1CC2 [(+)-α-dihydrotetrabenazine] | 1.2 |
